For reference, log10 IC50 measured on HDAC8 (Homo sapiens (Human), UniProt Q9BY41):
READOUT_TYPE: log10 IC50 (log10 of the value in nM)

- FC(F)(F)c1nc(-c2ccc(CN(c3ccccn3)c3ccccn3)cc2)no1: 3.68
- O=C(C1CCS(=O)(=O)CC1)N(Cc1ccc(-c2noc(C(F)(F)F)n2)cc1)c1cccc(C(F)(F)F)c1: 3.63
- OCC1CC(c2ccccc2)N(c2ccc(-c3noc(C(F)(F)F)n3)cn2)C1 (racemic): 2.92
- O=C(CC1CCS(=O)(=O)C1)N(Cc1ccc(-c2noc(C(F)(F)F)n2)cn1)c1cccc(F)c1 (racemic): 3.36
- Cc1nc(Cl)cnc1COc1ccc(-c2noc(C(F)(F)F)n2)cn1: 3.43
- Cc1noc([C@H]2CCCCN2c2cc(F)c(-c3noc(C(F)(F)F)n3)cc2F)n1: 4.46
- O=C(CC1COCCO1)N(Cc1ccc(-c2noc(C(F)(F)F)n2)cc1)c1cccc(C(F)(F)F)c1 (racemic): 3.30
- OCc1ccnc(NCc2ccc(-c3noc(C(F)(F)F)n3)cn2)c1: 2.94

* * *

For reference, IC50 measured on HDAC1 (Homo sapiens (Human)):
READOUT_TYPE: IC50

• O=C1CCC(c2ccccc2)N1c1cc(F)c(-c2noc(C(F)(F)F)n2)cc1F (stereo not shown) [Example 41] = 610 nM
• CC(C)NC(=O)c1ccccc1NCc1ccc(-c2noc(C(F)(F)F)n2)cn1 [Example 443] = 1200 nM
• O=C(NC(Cc1ccc(-c2noc(C(F)(F)F)n2)cn1)c1cccc(C(F)(F)F)c1)c1cccnc1 (racemic) [Example 487] = 670 nM
• CN1CC(=O)N(c2ccc(-c3noc(C(F)(F)F)n3)cc2)C(c2ccccc2)C1 (stereo not shown) [Example 162] = 850 nM

* * *

TARGET_UNDER_TEST: HDAC5 (Homo sapiens (Human), UniProt Q9UQL6)
Sequence (Q9UQL6 656-1122): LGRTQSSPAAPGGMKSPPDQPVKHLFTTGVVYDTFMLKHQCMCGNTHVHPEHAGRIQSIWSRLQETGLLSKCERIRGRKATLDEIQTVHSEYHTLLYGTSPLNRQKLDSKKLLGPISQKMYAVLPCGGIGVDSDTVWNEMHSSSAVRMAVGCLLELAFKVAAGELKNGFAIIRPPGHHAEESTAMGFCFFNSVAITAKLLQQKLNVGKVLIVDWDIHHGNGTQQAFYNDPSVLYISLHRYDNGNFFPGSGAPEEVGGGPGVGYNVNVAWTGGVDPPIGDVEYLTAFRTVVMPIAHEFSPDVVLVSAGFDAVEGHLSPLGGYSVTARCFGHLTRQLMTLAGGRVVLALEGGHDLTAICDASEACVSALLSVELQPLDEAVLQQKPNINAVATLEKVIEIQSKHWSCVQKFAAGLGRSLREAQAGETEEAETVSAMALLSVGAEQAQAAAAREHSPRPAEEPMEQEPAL
IC50 strictly less than 400 nM = label 1. Otherwise label 0.

- FC(F)(F)c1nc(-c2ccnc(OCc3nc4ccccc4[nH]3)c2)no1: label 0
- O=C(C1CCS(=O)(=O)CC1)N(Cc1ccc(-c2noc(C(F)(F)F)n2)cc1)c1cccc(C(F)(F)F)c1: label 0
- FC(F)(F)c1nc(-c2ccnc(OCCc3cccc4cn[nH]c34)c2)no1: label 0
- Fc1cc(COc2nc3ncccc3n2CC(F)(F)F)ccc1-c1noc(C(F)(F)F)n1: label 1
- Fc1cc(F)c(OCc2ccc(-c3noc(C(F)(F)F)n3)c(F)c2)cn1: label 1
- FC(F)(F)c1nc(-c2ccc(COc3nc(C4CC4)no3)nc2)no1: label 1
- Cc1ncc(OCc2ccc(-c3noc(C(F)(F)F)n3)c(F)c2)cn1: label 1
- Fc1ccccc1OCc1ccc(-c2noc(C(F)(F)F)n2)cn1: label 1
- CC(C)(C)OC(=O)[C@@H]1COCC(=O)N1c1ccc(-c2noc(C(F)(F)F)n2)c(F)c1: label 1
- CNC(=O)c1ccccc1OCc1ccc(-c2noc(C(F)(F)F)n2)c(F)c1: label 1
- CC(C(=O)N(Cc1ccc(-c2noc(C(F)(F)F)n2)cn1)c1cccc(F)c1)c1ccn(C)n1 (racemic): label 0
- COc1cncc(OCc2ccc(-c3noc(C(F)(F)F)n3)c(F)c2)c1: label 1
- Fc1ccc2ccc(OCc3ccc(-c4noc(C(F)(F)F)n4)c(F)c3)nc2n1: label 1
- FC(F)(F)c1nc(-c2ccc(COc3cc(Cl)ncn3)nc2)no1: label 0
- COC(=O)N1CCC(C(=O)N(Cc2ccc(-c3noc(C(F)(F)F)n3)cn2)c2cccc(C(F)(F)F)c2)CC1: label 0
- CN(C(=O)[C@@H]1COCC(=O)N1c1ccc(-c2noc(C(F)(F)F)n2)c(F)c1)C(C)(C)C: label 1
- CN(C(=O)[C@@H]1CCC(=O)N1c1ccc(-c2noc(C(F)(F)F)n2)c(F)c1)C(C)(C)C: label 0
- Fc1cc(COc2nc3cccnc3n2CC(F)(F)F)ccc1-c1noc(C(F)(F)F)n1: label 1
- Cc1cnc(COc2nccc(-c3noc(C(F)(F)F)n3)c2Cl)cn1: label 0
- Cn1cccc(OCc2ccc(-c3noc(C(F)(F)F)n3)c(F)c2)c1=O: label 1
- O=C1CCCC(c2ccccc2)N1c1ccc(-c2noc(C(F)(F)F)n2)cc1 (stereo not drawn): label 1
- Cc1nccc(OCc2ccc(-c3noc(C(F)(F)F)n3)c(F)c2)n1: label 1
- Fc1cccnc1COc1nccc(-c2noc(C(F)(F)F)n2)c1Cl: label 1
- Fc1cc(COc2cc[nH]n2)ccc1-c1noc(C(F)(F)F)n1: label 1
- Cc1noc([C@@H]2CCC(=O)N2c2ccc(-c3noc(C(F)(F)F)n3)c(F)c2F)n1: label 1
- O=c1[nH]c2ccccc2n(Cc2ccc(-c3noc(C(F)(F)F)n3)cn2)c1=O: label 1
- Fc1cc(COc2nnnc3ccccc23)ccc1-c1noc(C(F)(F)F)n1: label 1
- O=C(NC(Cc1ccc(-c2noc(C(F)(F)F)n2)cn1)c1cccc(C(F)(F)F)c1)C1CCS(=O)(=O)CC1 (racemic): label 0
- O=C1OC[C@@H](c2ccccc2)N1c1cc(F)c(-c2noc(C(F)(F)F)n2)cc1F: label 1
- Cn1c(OCc2ccc(-c3noc(C(F)(F)F)n3)c(F)c2)nc2ncccc21: label 1
- CC1(C)CCCCN1C(=O)[C@@H]1CCC(=O)N1c1ccc(-c2noc(C(F)(F)F)n2)c(F)c1: label 0
- Cc1cncnc1OCc1ccc(-c2noc(C(F)(F)F)n2)cn1: label 0
- O=C1COC[C@@H](c2ccccc2)N1c1ccc(-c2noc(C(F)(F)F)n2)cn1: label 1

* * *

pIC50: −log10 of the molar value.
For reference, pIC50 measured on HDAC1 (Homo sapiens (Human)):
READOUT_TYPE: pIC50

• Fc1cc(COc2cccc(Cl)n2)ccc1-c1noc(C(F)(F)F)n1 [Example 286] = 5.57
• O=c1ccc2ccccc2n1Cc1ccc(-c2noc(C(F)(F)F)n2)cn1 [Example 460] = 7.00
• Cc1nc2cc(F)ccc2n1Cc1ccc(-c2noc(C(F)(F)F)n2)cc1F [Example 29] = 5.80
• FC(F)c1cc(OCc2ccc(-c3noc(C(F)(F)F)n3)cn2)ncn1 [Example 306] = 5.89
• O=C1CC[C@@H](c2nc(-c3cccnc3)no2)N1c1ccc(-c2noc(C(F)(F)F)n2)cc1 [Example 113] = 6.89
• FC(F)(F)c1nc(-c2ccc(CNC3Cc4ccccc4C3)nc2)no1 [Example 378] = 6.20
• FC(F)(F)c1nc(-c2ccc(CNc3ccc4c[nH]nc4c3)cc2)no1 [Example 411] = 6.00
• FC(F)(F)c1nc(-c2ccc(COc3ccc4cnccc4n3)nc2)no1 [Example 311] = 6.06
• O=C1CCC(NCc2ccc(-c3noc(C(F)(F)F)n3)cn2)c2ccccc2N1 (racemic) [Example 381] = 6.28

* * *

TARGET_UNDER_TEST: HDAC1 (Homo sapiens (Human))
Sequence (Q13547 whole entry): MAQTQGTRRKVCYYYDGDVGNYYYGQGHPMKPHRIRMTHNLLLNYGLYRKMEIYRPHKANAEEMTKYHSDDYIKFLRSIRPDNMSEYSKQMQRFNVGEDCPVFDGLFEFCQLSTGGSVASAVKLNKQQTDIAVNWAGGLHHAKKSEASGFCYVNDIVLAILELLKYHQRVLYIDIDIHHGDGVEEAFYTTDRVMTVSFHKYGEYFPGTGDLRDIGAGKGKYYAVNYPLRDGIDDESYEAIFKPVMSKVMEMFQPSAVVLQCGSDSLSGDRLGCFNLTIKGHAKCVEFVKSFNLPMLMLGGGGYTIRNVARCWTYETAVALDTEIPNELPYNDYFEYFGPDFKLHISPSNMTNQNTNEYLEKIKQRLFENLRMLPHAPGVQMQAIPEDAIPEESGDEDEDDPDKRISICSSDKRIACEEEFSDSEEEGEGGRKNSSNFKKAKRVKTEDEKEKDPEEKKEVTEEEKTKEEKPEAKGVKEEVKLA
pIC50: −log10 of the molar value.
Listing of entries alongside the reported pIC50.
READOUT_TYPE: pIC50

- Fc1cc(COc2nc3cccnc3n2C2CC2)ccc1-c1noc(C(F)(F)F)n1 [Example 272]: 6.20
- Cc1nonc1CC(=O)N(Cc1ccc(-c2noc(C(F)(F)F)n2)cn1)c1cccc(F)c1 [Example 62]: 6.32
- CC1(C)CCCN1C(=O)[C@@H]1CCC(=O)N1c1ccc(-c2noc(C(F)(F)F)n2)c(F)c1 [Example 342]: 4.35
- CC(Cn1cncn1)C(=O)N(Cc1ccc(-c2noc(C(F)(F)F)n2)cc1)c1cccc(C(F)(F)F)c1 (racemic) [Example 79]: 5.89

* * *

TARGET_UNDER_TEST: HDAC8 (Homo sapiens (Human))
ASSAY_CONTEXT: read-out: HDAC8 IC50
READOUT_TYPE: IC50 (nM)

• O=C1NCCN(c2ccc(-c3noc(C(F)(F)F)n3)cn2)C1c1cccc(F)c1 (centres unmarked) [Example 153] = 280
• O=c1ccc2ccccc2n1Cc1ccc(-c2noc(C(F)(F)F)n2)cc1 [Example 28] = 1600
• COCC(=O)NC(Cc1ccc(-c2noc(C(F)(F)F)n2)cn1)c1cccc(C(F)(F)F)c1 (racemic) [Example 480] = 5300
• Cc1ccc(NCc2ccc(-c3noc(C(F)(F)F)n3)cn2)cn1 [Example 359] = 1800
• FC(F)(F)c1nc(-c2ccc(CNCC3CN(Cc4ccccc4)CCO3)nc2)no1 (racemic) [Example 453] = 1900
• FC(F)(F)c1nc(-c2ccnc(OC[C@@H]3C[C@@H]3c3ncccn3)c2)no1 [Example 424] = 320
• O=c1[nH]c2ccccc2n(Cc2ccc(-c3noc(C(F)(F)F)n3)cn2)c1=O [Example 469] = 1400

* * *

TARGET_UNDER_TEST: HDAC8 (Homo sapiens (Human), UniProt Q9BY41)
Sequence (Q9BY41 whole entry): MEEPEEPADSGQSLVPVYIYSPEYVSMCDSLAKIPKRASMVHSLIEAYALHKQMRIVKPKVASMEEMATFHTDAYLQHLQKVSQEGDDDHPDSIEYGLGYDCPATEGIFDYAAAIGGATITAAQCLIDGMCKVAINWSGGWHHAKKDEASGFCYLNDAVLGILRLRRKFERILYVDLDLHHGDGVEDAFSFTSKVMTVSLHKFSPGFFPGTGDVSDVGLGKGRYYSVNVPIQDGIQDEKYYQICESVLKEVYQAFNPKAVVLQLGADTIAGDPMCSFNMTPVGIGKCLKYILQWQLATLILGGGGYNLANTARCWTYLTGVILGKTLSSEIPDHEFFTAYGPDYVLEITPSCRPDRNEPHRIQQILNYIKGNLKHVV
IC50 strictly less than 2000 nM = criterion met. Otherwise criterion not met.

* O=C(C1CCCS(=O)(=O)C1)N(Cc1ccc(-c2noc(C(F)(F)F)n2)cn1)c1cccc(F)c1 (racemic) | criterion met
* FC(F)(F)c1nc(-c2ccc(CNc3ccc4c[nH]nc4c3)cc2)no1 | criterion not met
* O=C1CC[C@@H](CN2CCOCC2)N1c1ccc(-c2noc(C(F)(F)F)n2)c(F)c1 | criterion not met
* O=C(C1CCS(=O)(=O)C1)N(Cc1ccc(-c2noc(C(F)(F)F)n2)cn1)c1cccc(F)c1 (racemic) | criterion not met
* O=C(N1CCOCC1)N(Cc1ccc(-c2noc(C(F)(F)F)n2)cn1)c1cccc(C(F)(F)F)c1 | criterion not met
* O=C1NCCN(c2ccc(-c3noc(C(F)(F)F)n3)cn2)C1c1cccc(F)c1 (racemic) [Example 132] | criterion met
* FC(F)(F)c1nc(-c2ccnc(OCc3ccno3)c2)no1 | criterion met
* O=C1COC[C@@H](CNCc2ccc(-c3noc(C(F)(F)F)n3)cn2)N1 | criterion not met
